pIC50: −log10 of the molar value.
# literature pull: Alpha-2C adrenergic receptor (Homo sapiens) pIC50
# Sequence (P18825 whole entry): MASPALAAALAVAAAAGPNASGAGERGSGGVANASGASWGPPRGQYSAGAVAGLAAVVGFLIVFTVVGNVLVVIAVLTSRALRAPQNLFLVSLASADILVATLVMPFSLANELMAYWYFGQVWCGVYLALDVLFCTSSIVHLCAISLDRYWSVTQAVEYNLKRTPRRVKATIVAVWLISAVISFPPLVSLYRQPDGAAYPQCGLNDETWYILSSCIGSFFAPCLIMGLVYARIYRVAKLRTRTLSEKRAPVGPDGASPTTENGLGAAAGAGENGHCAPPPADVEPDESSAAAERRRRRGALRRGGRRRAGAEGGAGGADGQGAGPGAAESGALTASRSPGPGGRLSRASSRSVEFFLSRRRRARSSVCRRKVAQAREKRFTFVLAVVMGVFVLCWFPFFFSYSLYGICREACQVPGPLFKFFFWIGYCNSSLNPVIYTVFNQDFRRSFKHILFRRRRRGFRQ
readout: pIC50

CC[C@@H](C)Nc1nc(C)nc2c(-c3c(C)cc(OC)cc3OC)c(C)nn12 | < 6.00
COCCN(CCOC)c1nc(C)nc2c(-c3ccc(OC)cc3C)c(C)nn12 | < 6.00
CN(C)CC1CC2c3cc(F)ccc3Cc3ccc(F)cc3N2O1 (centres undefined) | < 6.00
CC[C@@H]1O[C@](/C=C/C2CC2)(C(F)(F)F)c2c(ccc(F)c2F)NC1=O | 4.98
